- Target Or Test System: FGFR3 (Homo sapiens, UniProt P22607)
- Construct: made in house; host or cells: E. coli derived from BL21, infected with T7 phage
- Sequence (P22607 23-806): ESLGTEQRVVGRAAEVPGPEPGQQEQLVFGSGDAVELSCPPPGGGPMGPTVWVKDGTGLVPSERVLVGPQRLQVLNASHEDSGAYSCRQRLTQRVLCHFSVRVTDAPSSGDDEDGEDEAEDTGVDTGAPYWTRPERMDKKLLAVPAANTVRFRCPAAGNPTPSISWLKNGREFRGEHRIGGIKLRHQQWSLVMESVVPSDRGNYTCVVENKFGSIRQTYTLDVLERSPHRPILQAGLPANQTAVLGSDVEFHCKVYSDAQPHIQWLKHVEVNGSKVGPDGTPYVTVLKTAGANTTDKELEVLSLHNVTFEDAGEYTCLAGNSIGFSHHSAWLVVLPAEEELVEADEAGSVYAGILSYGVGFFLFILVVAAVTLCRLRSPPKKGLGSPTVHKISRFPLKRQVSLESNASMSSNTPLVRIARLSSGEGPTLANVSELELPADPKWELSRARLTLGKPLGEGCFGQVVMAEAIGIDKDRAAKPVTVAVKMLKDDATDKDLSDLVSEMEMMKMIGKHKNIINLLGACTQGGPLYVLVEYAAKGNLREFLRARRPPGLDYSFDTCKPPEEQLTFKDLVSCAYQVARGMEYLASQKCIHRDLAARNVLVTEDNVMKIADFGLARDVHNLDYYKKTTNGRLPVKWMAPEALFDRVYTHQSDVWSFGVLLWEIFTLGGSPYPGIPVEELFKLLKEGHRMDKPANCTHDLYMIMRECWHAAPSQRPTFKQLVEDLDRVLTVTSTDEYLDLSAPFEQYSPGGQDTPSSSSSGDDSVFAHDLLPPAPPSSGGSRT
- Test Details: Kinase binding assay (kinase-tagged T7 phage, qPCR), Kd
- Particulars: read-out: FGFR3 (Kd nM)
Quantity Name: Kd

Short answer for COc1cc(NCc2cccnc2)cc(-c2n[nH]c3ccc(O[C@H](C)c4c(Cl)cncc4Cl)cc23)c1 [Example 47] : Kd was 0.1 to 100 nM

Short answer for Cc1ncc(Cl)c([C@@H](C)Oc2ccc3[nH]nc(-c4ccc5c(c4)COC4(CCN(CC(F)F)CC4)O5)c3c2)c1Cl [Example 166] : Kd was 0.1 to 100 nM

Short answer for COc1cc(NCc2ccccn2)cc(-c2n[nH]c3ccc(O[C@H](C)c4c(Cl)cncc4Cl)cc23)c1 [Example 46] : Kd was > 1000 nM

Short answer for COc1cc(-c2n[nH]c3ccc(O[C@H](C)c4c(Cl)cncc4Cl)cc23)cc(C#N)c1OC [Example 81] : Kd was > 1000 nM

Short answer for COc1c(F)cc(-c2n[nH]c3ccc(O[C@H](C)c4c(C)cnnc4C)cc23)cc1C#N [Example 82] : Kd was 0.1 to 100 nM

Short answer for COc1cc(C#N)cc(-c2n[nH]c3ccc(O[C@@H](C)c4c(C)cnnc4C)cc23)c1 [Example 55] : Kd was > 1000 nM

Short answer for CCOc1cc(C#N)cc(-c2n[nH]c3ccc(O[C@H](C)c4c(C)cnnc4C)cc23)c1 [Example 56] : Kd was 100 to 250 nM

Short answer for Cc1cnnc(C)c1[C@@H](C)Oc1ccc2[nH]nc(-c3cc(C#N)cc(N4CCOCC4)c3)c2c1 [Example 64] : Kd was > 1000 nM
